These entries and their values trace back to PubChem BioAssay AID1159580.

Method summary: chemical genetic growth profiling, strain panel (AID 1159580);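 further: tested at 20 µM; growth read once vehicle control cultures reached saturation at 30 °C; lower values mean less growth of the strain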
Conditions used: S. cerevisiae deletion strains, growth OD, locus YOR083W, strain WHI5
In all, about 5,500 compounds went through this assay and about 2,000 (36%) were called active. Roughly 18% stayed inconclusive and do not appear here. No stated cut-off is given here; in the data, active means normalized growth mostly below about 0.91 (no sharp cut-off); inconclusive means no clear call, values can overlap the other calls; inactive means mostly above about 0.92. The list shows a part of the results.
Possible outcomes: active, inactive

>>> classification("C[C@@H]1CC[C@H]2[C@@H](C)C(=O)O[C@@H]3O[C@@]4(C)CC[C@@H]1[C@]32OO4")
"active"
>>> classification("CCCCCCCCCCCCCCC(C(=O)O)C(O)(CC(=O)OC)C(=O)O (centres undefined)")
"inactive"
>>> classification("O=C(Nc1ccc(C(=O)O)c(O)c1)c1ccccc1")
"inactive"
>>> classification("C#C[C@]1(OC(C)=O)CCC2C3CCC4=CC(=O)CC[C@@H]4C3CC[C@@]21C (some centres undefined)")
"inactive"
>>> classification("CCC(C)C(=O)O[C@H]1[C@H](O)C2C(CN3CC(C)CCC3[C@@]2(C)O)C2C[C@]34O[C@]5(O)C(OC(=O)C(C)(O)CC)CC[C@@]3(C)C5C(OC(C)=O)[C@@H](OC(C)=O)C4[C@@]21O (some centres undefined)")
"inactive"
>>> classification("N=C(N)SCCN")
"inactive"
>>> classification("COc1ccc2[nH]cc(CCN)c2c1")
"inactive"
>>> classification("OC(CCN1CCCCC1)(c1ccccc1)C1CCCCC1 (centres undefined)")
"inactive"
>>> classification("CC(C)=CCCC1(C)C=Cc2c(O)c3c(c(CC=C(C)C)c2O1)OC12C(=CCCC1C(C)(C)O[C@@]2(C/C=C(\\C)C(=O)O)C(=O)O)C3=O (some centres undefined)")
"inactive"
>>> classification("CCN1C[C@]2(OC(=O)c3ccccc3NC(C)=O)CCC(OC)[C@]34C1[C@H](CC23)[C@@]1(O)CC(OC)[C@H]2CC4C1(O)[C@H]2OC (some centres undefined)")
"inactive"
>>> classification("CC1(C)CC(O)C2(C)CCC3(C)C(=CCC4C5(C)CCC(O)C(C)(CO)C5CCC43C)C2C1 (centres undefined)")
"inactive"
>>> classification("CC(C)=CCCC1(C)C=Cc2c(O)c3c(c(CC=C(C)C)c2O1)OC12C(=CC4CC1C(C)(C)OC2(C/C=C(/C)C(=O)O)C4=O)C3=O (centres undefined)")
"active"
>>> classification("Nc1ccccc1C(=O)CC(N)C(=O)O (centres undefined)")
"inactive"
>>> classification("CC1=NS(=O)(=O)c2cc(Cl)ccc2N1")
"inactive"
>>> classification("CC1(C)CC[C@]2(C(=O)O)CC[C@]3(C)C(=CCC4[C@@]5(C)CC[C@@H](O)C(C)(C)C5CC[C@]43C)C2C1 (some centres undefined)")
"inactive"
>>> classification("OC(CCN1CCCC1)(c1ccccc1)C1CCCCC1 (centres undefined)")
"inactive"
>>> classification("CC1(C)CC[C@]2(C)CC[C@]3(C)C(=CCC4[C@@]5(C)CC[C@H](O)C(C)(C)C5CC[C@]43C)C2C1 (some centres undefined)")
"inactive"
>>> classification("Cc1ccc(S(=O)(=O)NC(=O)NN2CC3CCCC3C2)cc1 (centres undefined)")
"inactive"
>>> classification("Cc1ccnc(NS(=O)(=O)c2ccc(N)cc2)n1")
"inactive"
>>> classification("C#C[C@]1(O)CCC2C3CCC4=CC(=O)CC[C@@H]4C3CC[C@@]21CC (some centres undefined)")
"inactive"
>>> classification("CCOP(=S)(OCC)Oc1nc(Cl)c(Cl)cc1Cl")
"inactive"
>>> classification("CCCCCCCCCCCC[C@H](C(=O)O)[C@@H](C)C(=O)O")
"inactive"
>>> classification("Cc1ccc(N=CN(C)C=Nc2ccc(C)cc2C)c(C)c1")
"inactive"
>>> classification("Nc1ccc(S(=O)(=O)Nc2ccnn2-c2ccccc2)cc1")
"inactive"
>>> classification("CC(=O)/C=C\\[C@@H]1[C@@]2(C)CCCC(C)(C)C2CC[C@@]1(C)O (some centres undefined)")
"inactive"
>>> classification("O=C(O)CC(O)(CC(=O)O)C(=O)O")
"inactive"
>>> classification("CCCOc1ccccc1-c1nc2n[nH]nc2c(=O)[nH]1")
"inactive"
>>> classification("CC(=O)O[C@H]1CC[C@@]2(C)C(CC[C@]3(C)C2CC=C2C4CC(C)(C)CC[C@]4(C)CC[C@]23C)C1(C)C (some centres undefined)")
"inactive"
>>> classification("CC1(C)CC[C@]2(C(=O)O)CC[C@]3(C)C(=CCC4[C@@]5(C)CC[C@H](O)[C@@](C)(CO)C5CC[C@]43C)C2C1 (some centres undefined)")
"inactive"
